src = paper PMC8713164

Assay: mouse peroral pharmacokinetic analysis
Type: in vivo
Details: IRC, in vivo; mouse PO 5 mg/kg
Could you mark each record 1 if its half-life at 24 h falls strictly under 0.8 h, and 0 if it equals or exceeds it?

# count of solved cases: 3
CCOc1ccc(-c2nnc([C@H]3C[C@H](NC(=O)c4cccc5nccnc45)C3)n2-c2ccccc2F)nc1 ... 0
Cc1cccc(-c2nnc([C@H]3C[C@H](NC(=O)c4cccc5nccnc45)C3)n2-c2ccccc2F)n1 [Compound 31a] ... 1
Cc1cccc(-c2nnc([C@H]3C[C@H](NC(=O)c4cc(F)cc5nccnc45)C3)n2-c2ccccc2F)n1 [Compound 31b] ... 1

Exercise: # strict comparison: is reported half-life at 24 h < 0.8 h? input = CCOc1ccc(-c2nnc([C@H]3C[C@H](NC(=O)c4ccnc5cc(F)cnc45)C3)n2-c2ccncc2)nc1 [Compound 18b]
Key: 0

Exercise: Quick check: half-life at 24 h of CCOc1ccc(-c2nnc([C@H]3C[C@H](NC(=O)c4ccnc5cccnc45)C3)n2-c2ccc(C)s2)nc1 [Compound 22a] under 0.8 h?
Key: 0

###

Test: microsomal stability, human
Type: in vitro ADME
Conditions: microsomes
Measured Quantity: microsomal CLint at 1 h (µL/min/mg)
Respond with the bare value in µL/min/mg.

Exercise: Need microsomal CLint at 1 h, item CCOc1ccc(-c2nnc([C@H]3C[C@H](NC(=O)c4cccc5nccnc45)C3)n2-c2ccccc2F)nc1
Key: 18

###

Target: TNKS2 (Homo sapiens, UniProt Q9H2K2)
Construct: TNKS2 (residues 873–1162); made in house
Assay: TNKS2 biochemical assay (unreacted NAD+ fluorescence)
Conditions: TNKS2 5 nM, 500 nM NAD+, 20 h; quadruplicates; 95% confidence intervals in parentheses; 24: averages of multiple independent measurements; read-out: IC50 TNKS2
Below, each of the compounds is paired with its reported pIC50 value.
// returns pIC50 (minus log10 of molar concentration), number only

CCOc1ccc(-c2nnc([C@H]3C[C@H](NC(=O)c4cccc5nc(C)c(C)nc45)C3)n2-c2ccccc2F)nc1 ... 8.59
O=C(N[C@H]1C[C@H](c2nnc(-c3cnccn3)n2-c2ccccc2F)C1)c1ccccn1 ... 7.03
CCOc1ccc(-c2nnc(C34CC(NC(=O)c5ccnc6cccnc56)(C3)C4)n2-c2cccnc2)nc1 ... 8.02

Exercise: State the recorded pIC50 for this entry: CCOc1ccc(-c2nnc([C@H]3C[C@H](NC(=O)c4ccnc5cccnc45)C3)n2-c2ccncc2)nc1 [Compound 18a]
Key: 8.27

###

Test: kinetic solubility
Type: physicochemical
Settings: PBS pH = 7
Recorded solubility kinetic by entry

Cc1cccc(-c2nnc([C@H]3C[C@H](NC(=O)c4cccc5nccnc45)C3)n2-c2ccccc2F)n1 [Compound 31a] ... > 80 µM

Exercise: Fill in the blank: the reported solubility kinetic of CCOc1ccc(-c2nnc([C@H]3C[C@H](NC(=O)c4ccnc5cc(F)cnc45)C3)n2-c2ccncc2)nc1 [Compound 18b] is ____.
Key: > 80 µM

###

Target: TNKS2 (Homo sapiens)
Construct: TNKS2 (residues 873–1162); made in house
Sequence (Q9H2K2 873-1162): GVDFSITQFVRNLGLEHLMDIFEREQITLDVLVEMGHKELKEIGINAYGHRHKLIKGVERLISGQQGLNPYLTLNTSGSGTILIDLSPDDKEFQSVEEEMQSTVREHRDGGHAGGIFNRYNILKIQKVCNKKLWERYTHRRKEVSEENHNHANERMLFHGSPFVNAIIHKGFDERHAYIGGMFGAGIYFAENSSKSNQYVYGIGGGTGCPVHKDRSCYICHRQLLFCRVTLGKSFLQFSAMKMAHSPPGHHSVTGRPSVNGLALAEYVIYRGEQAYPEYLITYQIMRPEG
Assay: TNKS2 biochemical assay (unreacted NAD+ fluorescence)
Conditions: IC50 TNKS2
Measured Quantity: pIC50
Hey, just a heads up that pIC50 is the negative log base 10 of the concentration in molar.

Exercise: Give the measured pIC50 of CCOc1ccc(-c2nnc([C@H]3C[C@H](NC(=O)c4cccc5nccnc45)C3)n2-c2ccccc2F)nc1 .
Key: 8.74
